Target: GSK-3αβ
Experiment: GSK-3 kinase inhibition (GS-1 substrate)
Conditions: read-out: IC50 μM Kinases GSK3, buffer A, 30° C., 15 μM ATP
metric: IC50 (µM)

O=C(Nc1cccc(Br)n1)Nc1cccc2c1C1CCCCN1C2=O (stereo not shown) [Compound 19]; 0.043
O=C(Nc1ncccn1)Nc1cccc2c1C1CCCCN1C2=O (stereo not shown) [Compound 42]; 0.75
O=C(Nc1ccc(Br)cn1)Nc1cccc2c1C1CC3(CCN1C2=O)SCCS3 (stereo not shown) [Compound 31]; 0.068
O=C1c2cccc(NC(=S)Nc3cnccn3)c2C2CCCCN12 (stereo not shown) [Compound 63]; 8

I = O=C1c2cccc(NC(=S)Nc3cccc(Br)n3)c2C2CCCCN12 (stereo not shown) [Compound 67]
II = O=C1c2cccc(NC(=S)Nc3ncccc3Br)c2C2CC3(CCN12)SCCS3 (stereo not shown) [Compound 74]
III = COC1CCN2C(=O)c3cccc(NC(=O)Nc4cc(C)ccn4)c3C2C1 (stereo not shown) [Compound 58]
Write the entries in order, lowest recorded IC50 first. Please respond by ranking the labels in the order requested.
III, II, I

A = COc1cc(NC(=O)Nc2cccc3c2C2CC4(CCN2C3=O)SCCS4)nc2ccccc12 (stereo not shown) [Compound 49]
B = COc1ccc(NC(=O)Nc2cccc3c2C2CCCCN2C3=O)cn1 (stereo not shown) [Compound 96]
Between A and B , whose recorded IC50 is greater? // respond with label for picked entry
A
(A: 4 µM, B: 0.23 µM)

* * *

metric: melting point (°C)

Use these answered entries as a reference point.
O=C(Nc1cccc2c1C1CCCCN1C2=O)Nc1ncccc1Br (stereo not drawn); 220
O=C(Nc1cnccn1)Nc1cccc2c1C1CCCCN1C2=O (stereo not drawn); 215
O=C(Nc1ccc(Br)cn1)Nc1cccc2c1C1CCCCN1C2=O (stereo not drawn); 225
O=C(Nc1ccncn1)Nc1cccc2c1C1CCCCN1C2=O (stereo not drawn); 218
O=C1CCN2C(=O)c3cccc(NC(=O)Nc4ccccn4)c3C2C1 (stereo not drawn); 254

1 = O=C(Nc1ccc(Br)cn1)Nc1cccc2c1C1CC3(CCN1C2=O)SCCS3 (stereo not drawn)
2 = O=C1c2cccc(NC(=S)Nc3ccccn3)c2C2CC3(CCN12)SCCS3 (stereo not drawn)
Hey, which is lower on measured melting point, 1 or 2 ? // respond with label for picked entry
2

* * *

metric: melting point (°C)

O=C(Nc1cccc2c1C1CCCCN1C2=O)NN1CCCCC1 (stereo not shown); 166
O=C(Nc1cc[nH]n1)Nc1cccc2c1C1CCCCN1C2=O (stereo not shown); 185
O=C1c2cccc(NC(=S)Nc3ncccn3)c2C2CCCCN12 (stereo not shown); 212
Cc1nc(NC(=O)Nc2cccc3c2C2CCCCN2C3=O)cs1 (stereo not shown); 146
O=C(Nc1cccc2c1C1CCCCN1C2=O)Nc1nc(Cl)c(Cl)c(Cl)c1Cl (stereo not shown); 246
O=C(Nc1ccccn1)Nc1cccc2c1C1C[C@@H](O)CCN1C2=O (stereo partly shown); 220
O=C(Nc1nc2ccccc2s1)Nc1cccc2c1C1CCCCN1C2=O (stereo not shown); 260
O=C(Nc1cccc(F)n1)Nc1cccc2c1C1CCCCN1C2=O (stereo not shown); 254

I = O=C1c2cccc(NC(=S)Nc3cc[nH]n3)c2C2CCCCN12 (stereo not shown)
II = O=C1c2cccc(NC(=S)Nc3cnccn3)c2C2CC3(CCN12)SCCS3 (stereo not shown)
Hey, which is lower on measured melting point, I or II ? // respond with label for picked entry
II
